# TEST_SYSTEM: NAD-dependent protein deacetylase sirtuin-2 (Homo sapiens)
# ASSAY_PROCEDURE: Inhibition of recombinant human full length SIRT2 using fluorescent ZMAL as substrate at 50 uM after 4 hrs by homogeneous fluorescent deacetylase assay
PROPERTY_NAME: inhibition

Some compounds with recorded inhibition:
[[record]]
smiles_str = "NC(=O)c1ccc2c(c1)CCc1cc(Cl)ccc1N2"
measured_result = "< 25%"

[[record]]
smiles_str = "NC(=O)c1cccc2c1Nc1ccccc1CC2"
measured_result = "< 25%"

[[record]]
smiles_str = "N#Cc1ccc2c(c1)CCc1cc(C#N)ccc1N2"
measured_result = "< 25%"

[[record]]
smiles_str = "O=[N+]([O-])c1ccc2c(c1)Nc1ccccc1CC2"
measured_result = "< 25%"

[[record]]
smiles_str = "O=[N+]([O-])c1ccc2c(c1)CCc1ccccc1N2"
measured_result = "< 25%"

[[record]]
smiles_str = "N#Cc1ccc2c(c1)CCc1cc(C(N)=O)ccc1N2"
measured_result = "< 25%"

[[record]]
smiles_str = "NC(=O)N1c2ccccc2CCc2ccccc21"
measured_result = "< 25%"

[[record]]
smiles_str = "NC(=O)c1ccc2c(c1)CCc1cc(N)ccc1N2"
measured_result = "< 25%"

[[record]]
smiles_str = "NC(=O)c1ccc2c(c1)CCc1ccccc1N2"
measured_result = "< 25%"


We next turn to a different compound, shown below.
Task item: Suppose we examine the compound `NC(=O)c1ccc2c(c1)CCc1cc(C(N)=O)ccc1N2` ; what inhibition value has been reported?
Reply: < 25%
